Cited source: ChEMBL document CHEMBL3352355

Test system: Trypanosoma cruzi
Experiment: Antiparasitic activity against amastigote stage of Trypanosoma cruzi infected in Vero cells assessed as parasite growth inhibition after 24 hrs by hemocytometery
Format: functional, organism-based
Settings: Trypanosoma cruzi, Vero, 24 h; read-out: IC50
measuredQuantity: pIC50
Keep it numeric: pIC50 is minus log10 of the concentration in mol/L.

**Q:** Send back Trypanosoma cruzi pIC50 of Cc1ccc([C@@H]2C[C@H](O)Cc3cc(F)ccc3N2)s1 (relative stereo) only.
**A:** 3.91

**Q:** Quote Trypanosoma cruzi pIC50 for entry Brc1ccc([C@@H]2C[C@H]3Cc4ccccc4N2O3)s1 (racemic) .
**A:** 3.86

**Q:** Provide pIC50, recorded with Trypanosoma cruzi, of Cc1ccc([C@@H]2C[C@H]3Cc4ccccc4N2O3)s1 (racemic)
**A:** 4.04

**Q:** State the measured pIC50 (Trypanosoma cruzi) of FC(F)(F)Oc1ccc2c(c1)C[C@@H]1C[C@@H](c3ccco3)N2O1 (racemic)
**A:** 3.50

**Q:** GET pIC50 where system = Trypanosoma cruzi and item = Cc1ccc([C@@H]2C[C@H](O)Cc3cc(Cl)ccc3N2)o1 (relative stereo)
**A:** 3.49

**Q:** Recall the reported pIC50 of Cc1ccsc1[C@@H]1C[C@H]2Cc3cc(OC(F)(F)F)ccc3N1O2 (racemic) on Trypanosoma cruzi and write it down.
**A:** 3.70

* * *

Experiment: Cytotoxicity against African green monkey Vero cells
Assay type: cell-based
Details: chlorocebus sabaeus
measuredQuantity: CC50 (µM)
Write the value in µM as a bare number.

**Q:** Give reported CC50 value for Cc1ccc([C@@H]2C[C@H]3Cc4cc(Cl)ccc4N2O3)s1 (racemic)
**A:** 1140

**Q:** Tell me CC50 reported for Fc1ccc2c(c1)C[C@@H]1C[C@@H](c3cccs3)N2O1 (racemic)
**A:** 1400

**Q:** Give the reported value of CC50 for this record: Cc1ccsc1[C@@H]1C[C@H](O)Cc2cc(OC(F)(F)F)ccc2N1 (relative stereo)
**A:** 26.7

**Q:** Provide measured CC50 value, entry: O=[N+]([O-])c1ccc([C@@H]2C[C@H]3Cc4ccccc4N2O3)o1 (racemic)
**A:** 51.4

* * *

Experiment: Cytotoxicity against human THP1 cells
Format: cell-based
Details: THP-1 cells
measuredQuantity: log10(CC50) (log10 of the value in µM)
Please interpret these as log10 of CC50 where CC50 is in µM.

**Q:** Please report log10(CC50) for the following compound: Cn1cccc1[C@@H]1C[C@H]2Cc3cc(F)ccc3N1O2 (mixture of isomers)
**A:** 3.34

**Q:** Input O[C@@H]1Cc2cc(F)ccc2N[C@H](c2ccoc2)C1 , output reported log10(CC50).
**A:** 2.84

**Q:** Provide one value: measured log10(CC50) of O[C@@H]1Cc2cc(Cl)ccc2N[C@H](c2cccs2)C1 (relative stereo)
**A:** 2.06

**Q:** Provide one value: measured log10(CC50) of O[C@@H]1Cc2ccccc2N[C@H](c2cccs2)C1 (relative stereo)
**A:** 2.89

**Q:** // Input: Cc1ccc([C@@H]2C[C@H](O)Cc3ccccc3N2)o1 (relative stereo) . Output its log10(CC50) only.
**A:** 2.42

**Q:** Indicate the recorded log10(CC50) value for this compound: Fc1ccc2c(c1)C[C@@H]1C[C@@H](c3cccs3)N2O1 (racemic)
**A:** 3.00

* * *

Tested on: Trypanosoma cruzi
Test: Antiparasitic activity against amastigote stage of Trypanosoma cruzi infected in Vero cells assessed as parasite growth inhibition after 24 hrs by hemocytometery
Assay type: functional, organism-based
Settings: Trypanosoma cruzi, Vero, 24 h; read-out: IC50
I'd be grateful if you could share measured pIC50 for these entries.
Friendly reminder that pIC50 comes from taking -log10 of the concentration in mol/L.

**Q:** Look up pIC50 of Cc1ccc([C@@H]2C[C@H](O)Cc3ccccc3N2)s1 (relative stereo) and report it.
**A:** 3.88

**Q:** Specify pIC50 for Fc1ccc2c(c1)C[C@@H]1C[C@@H](c3ccco3)N2O1 (racemic) and stop.
**A:** 4.15

**Q:** Give reported pIC50 value for Cc1ccc([C@@H]2C[C@H]3Cc4cc(Cl)ccc4N2O3)o1 (racemic)
**A:** 3.51

**Q:** Provide measured pIC50 value, entry: Cc1ccc([C@@H]2C[C@H]3Cc4cc(Cl)ccc4N2O3)s1 (racemic)
**A:** 4.00

* * *

I'd be grateful if you could share measured log10(CC50) for these entries.
Assay: Cytotoxicity against human THP1 cells
Assay type: cell-based
Details: THP-1 cells
Annotation: log10 of CC50, µM basis.

**Q:** Tell me log10(CC50) reported for O[C@@H]1Cc2cc(F)ccc2N[C@H](c2cccs2)C1 (relative stereo)
**A:** 2.28

**Q:** Recall and state the measured log10(CC50) for O[C@@H]1Cc2cc(OC(F)(F)F)ccc2N[C@H](c2cccs2)C1 .
**A:** 1.79

**Q:** Name the recorded log10(CC50) of the item O=[N+]([O-])c1ccc([C@@H]2C[C@H]3Cc4ccccc4N2O3)o1 (racemic) in your answer.
**A:** 2.37

**Q:** Give the value of log10(CC50) reported for the following: c1csc([C@@H]2C[C@H]3Cc4ccccc4N2O3)c1 (relative stereo)
**A:** 2.86

**Q:** Read the entry C[C@@H]1[C@H](O)[C@@H](C)/C=C/C=C/C=C/C=C/C=C/C=C/C=C/[C@H](O[C@@H]2O[C@H](C)[C@@H](O)[C@H](N)[C@@H]2O)C[C@@H]2O[C@](O)(C[C@@H](O)C[C@@H](O)[C@H](O)CC[C@@H](O)C[C@@H](O)CC(=O)O[C@H]1C)C[C@H](O)[C@H]2C(=O)O and write its reported log10(CC50).
**A:** 1.47

* * *

Test: Cytotoxicity against human THP1 cells
Type: cell-based
Conditions: THP-1 cells
Exam item: assign Met to entries whose CC50 is below 500 µM and Not met to entries at or above 500 µM. Note that a value of exactly 500 µM receives Not met.

**Q:** Below 500 µM on CC50? Entry O=[N+]([O-])c1ccc([C@@H]2C[C@H]3Cc4cc(F)ccc4N2O3)o1 (racemic)
**A:** Not met

**Q:** Given the entry O[C@@H]1Cc2cc(OC(F)(F)F)ccc2N[C@H](c2ccoc2)C1 (relative stereo) , would its reported CC50 be below 500 µM?
**A:** Met

**Q:** Quick check: CC50 of Cc1ccc([C@@H]2C[C@H](O)Cc3cc(F)ccc3N2)o1 (relative stereo) under 500 µM?
**A:** Not met

**Q:** Consider the compound Clc1ccc2c(c1)C[C@@H]1C[C@@H](c3ccco3)N2O1 (racemic) . Is its CC50 strictly less than 500 µM?
**A:** Not met

**Q:** Does Brc1ccc([C@@H]2C[C@H]3Cc4ccccc4N2O3)s1 (racemic) have CC50 strictly under 500 µM?
**A:** Not met

**Q:** Below 500 µM on CC50? Entry Cc1ccsc1[C@@H]1C[C@H]2Cc3cc(F)ccc3N1O2 (racemic)
**A:** Met

**Q:** For this compound, is CC50 lower than 500 µM? Cc1ccc([C@@H]2C[C@H](O)Cc3cc(OC(F)(F)F)ccc3N2)s1 (relative stereo)
**A:** Met

**Q:** Hi there! Is CC50 for O[C@@H]1Cc2ccccc2N[C@H](c2ccco2)C1 (relative stereo) below 500 µM, do you know?
**A:** Met

**Q:** Does Cc1ccc([C@@H]2C[C@H]3Cc4ccccc4N2O3)o1 (racemic) have CC50 strictly under 500 µM?
**A:** Met

* * *

Test: Cytotoxicity against African green monkey Vero cells
Type: cell-based
Conditions: chlorocebus sabaeus
Could you please mark Met for values of CC50 below 200 µM and Not met for values at or above it?

**Q:** Hello, I'm reviewing records and need to know if CC50 of c1csc([C@@H]2C[C@H]3Cc4ccccc4N2O3)c1 (relative stereo) is below 200 µM. Could you check?
**A:** Not met

**Q:** Lab log: compare recorded CC50 with 200 µM; is it strictly lower for O=[N+]([O-])c1ccc([C@@H]2C[C@H]3Cc4cc(F)ccc4N2O3)o1 (racemic) ?
**A:** Not met

**Q:** # check: CC50 < 200 µM for Cc1ccc([C@@H]2C[C@H](O)Cc3cc(Cl)ccc3N2)s1 (relative stereo)
**A:** Met

**Q:** Does Cc1ccsc1[C@@H]1C[C@H](O)Cc2ccccc2N1 (relative stereo) have CC50 strictly under 200 µM?
**A:** Not met

* * *

Tested on: Trypanosoma cruzi
Experiment: Antiparasitic activity against amastigote stage of Trypanosoma cruzi infected in Vero cells assessed as parasite growth inhibition after 24 hrs by hemocytometery
Type: functional, organism-based
Conditions: Trypanosoma cruzi, Vero, 24 h; read-out: IC50
measuredQuantity: IC50 (µM)
// return numeric value only (unit: µM, not printed)

**Q:** Entry Cc1ccsc1[C@@H]1C[C@H]2Cc3ccccc3N1O2 (racemic) needs its IC50 filled in; supply it.
**A:** 134

**Q:** Tell me measured IC50 for Cc1ccsc1[C@@H]1C[C@H]2Cc3cc(F)ccc3N1O2 (racemic) please.
**A:** 330

**Q:** Respond only with IC50 recorded for Clc1ccc2c(c1)C[C@@H]1C[C@@H](c3ccc(Br)s3)N2O1 (racemic)
**A:** 23.9

**Q:** State, in one line, measured IC50 of Fc1ccc2c(c1)C[C@@H]1C[C@@H](c3ccc(Br)s3)N2O1 (racemic)
**A:** 54.6

**Q:** Using the record for Cc1ccc([C@@H]2C[C@H]3Cc4cc(OC(F)(F)F)ccc4N2O3)o1 (racemic) , state its measured IC50.
**A:** 212
